The origin of these recorded values is the supplement of paper PMC11451515.

cell viability reference
System: SEM cells
assayProtocol: cell viability relative to DMSO control; higher = less cytotoxic
experimentalSetup: RPMI 5 mM glucose + 10% FBS; 48 h; 0.569 µM
Numeric only. Scale: %

molecule | studyTarget | cell viability / %
COC[C@H](NC(=O)c1cnc(C)s1)C(=O)N[C@@H](COC)C(=O)N[C@@H](Cc1ccccc1)C(=O)[C@@]1(C)CO1 | SEM cells | 3.82
CC(C)(C)/[N+]([O-])=C/c1ccc([S+](=O)([O-])[O][Na])cc1[S+](=O)([O-])[O][Na] | SEM cells | 110
CC(C)(C)OC(=O)CN(Cc1ccc(Cl)cc1)Cc1ccc([N+](=O)[O-])s1 | SEM cells | 90.2
CCC[C@@H]1C[C@@H](C(=O)N[C@@H]([C@H]2O[C@H](SC)[C@H](O)[C@@H](O)[C@H]2O)[C@@H](C)O)N(C)C1.Cl | SEM cells | 130
Cc1ccc(C(C)(O)c2nc3ccccc3s2)c(C)c1 (stereo not drawn) | SEM cells | 7.03
COc1cc2nccc(Oc3ccc(NC(=O)C4(C(=O)Nc5ccc(F)cc5)CC4)cc3)c2cc1OC | SEM cells | 56
O=C/1\C=C(/OC(=C1)/C2=C3SC4=C(SC3=CC=C2)C=CC=C4)N5CCOCC5 | SEM cells | 108

Please turn your attention to the following entry.
The molecule COc1cc2c(N3CCN(C(=O)Nc4ccc(OC(C)C)cc4)CC3)ncnc2cc1OCCCN1CCCCC1 showed cell viability equal to 51.3
